Molecular target: T1, human CXCR5 (human, UniProt P32302 1-372)
T1 sequence: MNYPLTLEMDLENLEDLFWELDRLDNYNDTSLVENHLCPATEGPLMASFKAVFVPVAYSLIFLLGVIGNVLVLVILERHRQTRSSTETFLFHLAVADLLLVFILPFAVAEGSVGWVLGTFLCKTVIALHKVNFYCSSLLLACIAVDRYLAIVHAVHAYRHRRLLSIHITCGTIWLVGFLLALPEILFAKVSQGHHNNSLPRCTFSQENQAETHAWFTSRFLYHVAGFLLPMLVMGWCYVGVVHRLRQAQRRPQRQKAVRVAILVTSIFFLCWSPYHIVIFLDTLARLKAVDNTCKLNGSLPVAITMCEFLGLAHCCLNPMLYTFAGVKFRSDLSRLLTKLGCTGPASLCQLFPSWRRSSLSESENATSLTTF
Experiment: cell-based or functional assay
# ADCC Activity Average EC50, Human B Cells >= 0.6 nM gives fulfilled, anything below gives not fulfilled

Look over these answered cases.
# Binder, Cat
data = [
    ("16D7 (reference antibody) (antibody, human IgG1, kappa, V domains shown, fucosylated; also called S16D7) VH: QVQLKESGPGLVAPSESLSITCTVSGFSLIDYGVNWIRQPPGKGLEWLGVIWGDGTTYYNPSLKSRLSISKDNSKSQVFLKVTSLTTDDTAMYYCARIVYWGQGTLVTVSA VL: DIVMTQAAPSVAVTPGASVSISCRSSKSLLHSSGKTYLYWFLQRPGQSPQLLIYRLSSLASGVPDRFSGSGSGTAFTLRISRVEAEDVGVYYCMQHLEYPYTFGGGTKLEIKR", "fulfilled"),
    ("Humanized 11G2 151/152 (antibody, human IgG1, V domains shown, also called h11G2 VH (XC152)/VL (XC151)) VH: EVQLVESGGGLVKPGGSLRLSCAASGFTFTDFYMSWVRQAPGKGLEWLGFIRNKANGYTTEYSAPVKGRFTISRDDSKNTLYLQMNSLKTEDTAVYYCVRVYGSTLHYWGQGTLVTVSS VL: DIQMTQSPSSLSASVGDRVTITCRASESVEYHGTSLMHWYQQKPGKAPKLLIYAASNVESGVPSRFSGSGSGTDFTLTISSLQPEDFATYYCQQSRKVPWTFGQGTKVEIK", "not fulfilled"),
]

Please tell me: is the binder Humanized 11G2 154/155 (antibody, human IgG1, kappa, V domains shown, fucosylated human IgG1/kappa; also called h11G2 VL XC154/VH XC155) VH: EVQLVESGGGLVQPGGSLRLSCAASGFTFTDFYMSWVRQAPGKGLEWVGFIRNKANGYTTEYSASVKGRFTISRDNAKNSLYLQMNSLRAEDTAVYYCARVYGSTLHYWGQGTLVTVSS VL: DIQMTQSPSSLSASVGDRVTITCRASESVEYHGTSLMHWYQQKPGKAPKLLIYAASNVESGVPSRFSGSGSGTDFTLTISSLQPEDFATYYCQQSRKVPWTFGQGTKVEIKR at or over 0.6 nM in terms of ADCC Activity Average EC50, Human B Cells?
not fulfilled

Please tell me: is the binder Chimeric 41A10 (antibody, human IgG1, kappa, V domains shown, mouse V regions on human IgG1/kappa; fucosylated; also called 41A10 (chimeric)) VH: EVQLVESGGDLVKPGGSLKLSCAASGFTFRSYGMSWVRQTPDKRLEWVATISSGGTYTFYPDILKGRITISRDNAKNTLYLQMSNLKSEDTAMYYCARRGEDYRGALEHWGQGTSVTVSS VL: QIVLTQSPAVMSASPGEKVTMTCSASSSVNYIHWYQQKSGTSPKRWIYETSRLASGVPVRFSGSGSGTSYSLTISTMEAEDAATYYCQQWSSNPLTFGAGTKLELKR at or over 0.6 nM in terms of ADCC Activity Average EC50, Human B Cells?
fulfilled

Please tell me: is the binder Chimeric 11G2 (antibody, human IgG1, kappa, V domains shown, mouse V regions on human IgG1/kappa; also called 11G2 (chimeric)) VH: EVKLVESGGGLVQPGGSLRLSCATSGFTFTDFYMSWVRQPPGRALEWLGFIRNKANGYTTEYSASVKGRFTISRDNSQSILYLQMNTLRAGDSATYYCVRVYGSTLHYWGQGTILTVSS VL: DVVVTQSPDSLAVSLGQRATISCRASESVEYHGTSLMHWYQQKPGQPPKLLIYAASNVESGVPARFSGSGSGTDFSLNIHPVEEGDIAMYFCQQSRKVPWTFGGGTKLEIKR at or over 0.6 nM in terms of ADCC Activity Average EC50, Human B Cells?
not fulfilled

Please tell me: is the binder 11A7 (reference antibody) (antibody, human IgG1, lambda, V domains shown, fucosylated) VH: EVQLVESGGGLVQPGGSLRLSCAASGFTVSSNYMSWVRQAPGKGLEWVSVIYSGGSTYYADSVKGRFTISRHNSKNTLYLQMNSLRAEDTAVYYCARGYVVWGQGTLVTVSS VL: QPVLTQPPSVSKDLRQTATLTCTGNSNNVGNQGATWLQQHQGHPPKLLSYKNNNRPSGISERFSASRSGNTASLTITGLQPEDEADYYCSAWDSSLSAWVFGGGTQLTVLG at or over 0.6 nM in terms of ADCC Activity Average EC50, Human B Cells?
not fulfilled

Please tell me: is the binder Humanized 41A10 142/147 (antibody, human IgG1, V domains shown, also called h41A10 VH (XC147)/VL (XC142)) VH: EVQLVESGGGLVQPGGSLRLSCAASGFTFRSYGMSWVRQAPGKGLEWVATISSGGTYTFYPDILKGRITISRDNAKNSLYLQMNSLRAEDTAVYYCARRGEDYRGALEHWGQGTLVTVSS VL: DIQMTQSPSSLSASVGDRVTITCSASSSVNYIHWYQQKPGKAPKRLIYETSRLASGVPSRFSGSGSGTDYTLTISSLQPEDFATYYCQQWSSNPLTFGQGTKVEIK at or over 0.6 nM in terms of ADCC Activity Average EC50, Human B Cells?
fulfilled

Please tell me: is the binder Afucosyl Chimeric 11G2 (antibody, human IgG1, kappa, V domains shown, afucosylated Fc glycan (Asn297), made in Potelligent CHOK1SV cells) VH: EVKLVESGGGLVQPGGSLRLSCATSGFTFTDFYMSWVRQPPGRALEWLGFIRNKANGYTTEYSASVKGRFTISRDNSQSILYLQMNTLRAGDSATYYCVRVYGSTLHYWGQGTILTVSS VL: DVVVTQSPDSLAVSLGQRATISCRASESVEYHGTSLMHWYQQKPGQPPKLLIYAASNVESGVPARFSGSGSGTDFSLNIHPVEEGDIAMYFCQQSRKVPWTFGGGTKLEIKR at or over 0.6 nM in terms of ADCC Activity Average EC50, Human B Cells?
not fulfilled

Please tell me: is the binder Afucosyl humanized 11G2 154/155 (antibody, human IgG1, kappa, V domains shown, afucosylated Fc glycan (Asn297), also called afucosyl h11G2 XC154/XC155; afucosylated h11G2 VL XC154/VH XC155) VH: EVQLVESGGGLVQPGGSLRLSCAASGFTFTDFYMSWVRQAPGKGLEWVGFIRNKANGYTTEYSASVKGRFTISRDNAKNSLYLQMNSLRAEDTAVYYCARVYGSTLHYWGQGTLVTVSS VL: DIQMTQSPSSLSASVGDRVTITCRASESVEYHGTSLMHWYQQKPGKAPKLLIYAASNVESGVPSRFSGSGSGTDFTLTISSLQPEDFATYYCQQSRKVPWTFGQGTKVEIKR at or over 0.6 nM in terms of ADCC Activity Average EC50, Human B Cells?
not fulfilled
